target: NDM-1 (Klebsiella pneumoniae); assay: biochemical; settings: compound at 250 μM; meropenem substrate
Sequence (C7C422 36-270): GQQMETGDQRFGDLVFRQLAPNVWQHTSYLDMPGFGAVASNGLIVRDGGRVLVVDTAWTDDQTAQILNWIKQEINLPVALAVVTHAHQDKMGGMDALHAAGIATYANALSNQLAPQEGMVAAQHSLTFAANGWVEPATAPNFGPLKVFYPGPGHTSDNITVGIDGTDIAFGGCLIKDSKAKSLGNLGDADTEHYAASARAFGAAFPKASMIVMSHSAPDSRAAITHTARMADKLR
METRIC: Percent Inhibition against NDM-1

>>> reported("O=C(O)CN(CC(=O)O)S(=O)(=O)c1cc2ccccc2s1 [Compound 21m]")
"~ 20%"
>>> reported("O=C(O)CN(CC(=O)O)Cc1ccccc1 [Compound 11]")
"65%"
>>> reported("O=C(O)CN(CC(=O)O)S(=O)(=O)c1cccs1 [Compound 21l]")
"~ 20%"
>>> reported("CN(CC(=O)O)CC(=O)O [Compound 1]")
"90%"

---

molecular target: VIM-2 (Escherichia coli, UniProt Q5U7L7); type: binding; details: VIM-2 10 μM, inhibitor 50 μM, approximately 5 min incubation
Quick reference: Complex observed by native ESI-MS of the listed items.
METRIC: Complex observed by native ESI-MS

>>> reported("O=C(O)CN(CCc1ccco1)CC(=O)O [Compound 23f]")
"2Zn: VIM-2:23f"
>>> reported("O=C(O)c1cccc(C(=O)O)n1 [DPA, dipicolinic acid, reference compound]")
"0Zn: VIM-2:DPA"
>>> reported("CN(CC(=O)O)CC(=O)O")
"2Zn: VIM-2:1"
>>> reported("O=C(O)CN(CCc1cccs1)CC(=O)O [Compound 23e]")
"2Zn: VIM-2:23e"
>>> reported("Cc1ccc(CN(CC(=O)O)CC(=O)O)s1 [Compound 23c]")
"2Zn: VIM-2:23c"
>>> reported("Cc1ccc(CN(CC(=O)O)CC(=O)O)o1 [Compound 23d]")
"2Zn: VIM-2:23d"

---

molecular target: NDM-1 (Klebsiella pneumoniae, UniProt C7C422)
pKi: −log10 of the molar value.
METRIC: pKi

>>> reported("O=C(O)CN(CCc1ccco1)CC(=O)O [Compound 23f]")
5.59

---

biological target: NDM-1 (Klebsiella pneumoniae); format: binding; conditions: NDM-1 10 μM, inhibitor 50 μM, approximately 5 min incubation
Sequence (C7C422 37-270 limits assumed): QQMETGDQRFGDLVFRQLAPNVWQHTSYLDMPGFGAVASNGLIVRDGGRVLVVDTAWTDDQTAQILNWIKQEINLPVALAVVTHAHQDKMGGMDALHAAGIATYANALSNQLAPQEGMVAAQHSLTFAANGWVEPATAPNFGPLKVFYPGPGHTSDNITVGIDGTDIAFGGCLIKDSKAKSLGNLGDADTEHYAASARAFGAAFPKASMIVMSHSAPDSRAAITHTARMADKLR
METRIC: Complex observed by native ESI-MS

>>> reported("Cc1ccc(CN(CC(=O)O)CC(=O)O)s1 [Compound 23c]")
"2Zn: NDM-1:23c"
>>> reported("CN(CC(=O)O)CC(=O)O")
"2Zn: NDM-1:1"
>>> reported("O=C(O)CN(CCc1ccco1)CC(=O)O [Compound 23f]")
"2Zn: NDM-1:23f"
>>> reported("Cc1ccc(CN(CC(=O)O)CC(=O)O)o1 [Compound 23d]")
"2Zn: NDM-1:23d"
>>> reported("O=C(O)CN(CCc1cccs1)CC(=O)O [Compound 23e]")
"2Zn: NDM-1:23e"

---

molecular target: NDM-1 (Klebsiella pneumoniae); experiment: biochemical; settings: read-out: Percent Inhibition against NDM-1
METRIC: inhibition at 250 µM

>>> reported("O=C(O)CN(CC(=O)O)Cc1ccoc1 [Compound 21i]")
"~99%"
>>> reported("O=C(O)CN(CC(=O)O)Cc1ccsc1 [Compound 21h]")
"64%"
>>> reported("O=C(O)CN(CCc1ccccc1)CC(=O)O [Compound 21a, 2,2’-(Phenethylazanediyl)diacetic acid]")
"56 to 76%"
>>> reported("O=C(O)CN(CC(=O)O)Cc1cccc(-c2ccccc2)c1 [Compound 21c]")
"56 to 76%"
>>> reported("O=C(O)CN(CC(=O)O)Cc1ccc(-c2ccccc2)cc1 [Compound 21b]")
"56 to 76%"
